Data credit: paper PMC5469796

target-desc: PKR dsRBD (UniProt P19525 1-184)
Sequence (P19525 1-184): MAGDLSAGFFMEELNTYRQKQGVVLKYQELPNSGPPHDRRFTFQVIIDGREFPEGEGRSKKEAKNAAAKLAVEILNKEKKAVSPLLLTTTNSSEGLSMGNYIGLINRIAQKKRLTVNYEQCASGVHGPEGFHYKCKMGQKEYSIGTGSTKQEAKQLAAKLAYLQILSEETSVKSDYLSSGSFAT
procedure-details: sedimentation velocity AUC; Kd1, sequential 2:1; AU75: 75 mM HEPES pH 7.5, 75 mM NaCl, 0.1 mM EDTA, 0.1 mM TCEP, 20 °C, 50,000 rpm, 260 nm; errors are confidence intervals (95% joint stated for Table 2); crosslinking in AU75 + 10 mM EDTA, 0.5 µM RNA, 1 µM protein, on ice before UV
experimental-context: protein: recombinant; chain copies: 2; single strand
attribute-measured: Kd (µM)
Numeric only. Scale: µM

Qu. Which Kd is reported for this binder? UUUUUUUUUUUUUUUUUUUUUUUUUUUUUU (ssRNA) [U30]
Ans. 8.42
